Here the recorded Ratio vs. GLP-1R is given for each entry.
Molecular target: human GLP-1 receptor (GLP-1R), expressed on CHO-K1 cells (human, UniProt P43220 24-463)
Assay: cell-based or functional assay
Numbered stars: 1 amine (or outer) side, 2 acyl side, 3 side chain; on linkers, the order of the positions; unused ones are H or OH. Square brackets hold non-standard residues; d marks the D form. Side chains are listed from the residue outwards. Ends that are not written are not given here. * marks the point of attachment. C18 = C18 fatty acid (C16-C22 fatty acids conjugated via γGlu/8-amino-3,6-dioxaoctanoic acid spacers); methoxinine = methoxinine (m*), COCC[C@H](N[*:1])C(=O)[*:2]; Biotin = O=C1N[C@H]2[C@H](CS[C@H]2CCCCC(=O)*)N1; γGlu = O=C(O)[C@H](CCC(=O)[*:2])N[*:1]; AEEA = NCCOCCOCC(=O)O; Aib = CC(C)(N)C(=O)O
Returns: the value as a bare number; no unit string appended.

Example entries begin here.
1) Y[Aib]QGTFTSDYSK([AEEA-AEEA-γGlu-C18])LLDYMMQRDFVQWLLEGGPSSGAPPPSK(Biotin)-NH2 [SEQ ID NO. 90]: 100
2) Y[Aib]QGTFTSDYSK([AEEA-AEEA-γGlu-C18])LLDYMMQ[Aib]DFVQYLLEGGPSSGAPPPSK-NH2 (not fully specified (residue 40)) [SEQ ID NO. 92]: 100
3) Y[Aib]QGTFTSDYSK([AEEA-AEEA-γGlu-C18])YLDYMMQRDFVK(Biotin)WLLEGGPSSGAPPPS (ends and bridges not checked) [SEQ ID NO. 97]: 100
4) Y[Aib]QGTFTSDYSK([AEEA-AEEA-γGlu-C18])LLDQQAQRDFVQWLLEGGPSSGAPPPS-NH2 [SEQ ID NO. 95]: 100

[Q] For the binder Y[Aib]QGTFTSDYSK([AEEA-AEEA-γGlu-C18])LLDKMMQRDFVQWLLEGGPSSGAPPPS-NH2 (not fully specified (residue 16); printed as YAibQGT FTSDY SK*LLD B*MMQR DFVQW LLEGG PSSGA PPPS) [SEQ ID NO. 86] , what Ratio vs. GLP-1R is on record?
[A] 100

[Q] # get_value(readout='Ratio vs. GLP-1R', item= Y[Aib]QGTFTSDYSK([AEEA-AEEA-γGlu-C18])LLDYMMQ[Aib]DFVQWLLEGGPSSGAPPPS-NH2 [SEQ ID NO. 84] )
[A] 100

[Q] Record request: Ratio vs. GLP-1R value, item Y[Aib]QGTFTSDYSK([AEEA-AEEA-γGlu-C18])LLDYMMQ[Aib]DFVQYLLEGGPSSGAPPPS-NH2 [SEQ ID NO. 85]
[A] 100

[Q] Endpoint output: Ratio vs. GLP-1R of Y[Aib]QGTFTSDYSK([AEEA-AEEA-γGlu-C18])LLDYMMQRDFVKWLLEGGPSSGAPPPS-NH2 (not fully specified (residue 24); printed as YAibQGT FTSDY SK*LLD YMMQR DFVB*W LLEGG PSSGA PPPS) [SEQ ID NO. 89] . Value?
[A] 100

[Q] Ratio vs. GLP-1R for Y[Aib]QGTFTSDYSK([AEEA-AEEA-γGlu-C18])LLDYMMQKDFVQWLLEGGPSSGAPPPS-NH2 (not fully specified (residue 20); printed as YAibQGT FTSDY SK*LLD YMMQB* DFVQW LLEGG PSSGA PPPS) [SEQ ID NO. 88] ?
[A] 100

[Q] I am curious: what Ratio vs. GLP-1R value has been reported for Y[Aib]QGTFTSDYSK([AEEA-AEEA-γGlu-C18])LLDY[methoxinine][methoxinine]QRDFVQWLLEGGPSSGAPPPS-NH2 [SEQ ID NO. 96] ?
[A] 100
